System: normal primary human neonatal fibroblast cells
experimentNotes: Sulforhodamine B (SRB) cytotoxicity assay, neonatal fibroblasts
Assay type: cell-based
testContext: 72 h, 500 μM
measurementName: cytotoxic activity against neonatal fibroblasts (in words)

Cc1ncc(COP(=O)(O)O)c(/C=N/OCC2(F)CCNC2)c1O (stereo not shown): generally more toxic
Cc1ncc(COP(=O)(O)O)c(/C=N/OC[C@@H]2CCNC2)c1O: generally more toxic
Cc1ncc(COP(=O)(O)O)c(/C=N/OCCCN)c1O: generally more toxic

---

experimentalTarget: purified human ODC enzyme (Homo sapiens)
Construct: His6 (C); made in house; host or cells: E. coli BL21(DE3)
experimentNotes: In vitro ODC enzyme activity assay
Assay type: biochemical
testContext: ligand efficiency
measurementName: LE
Format: numeric value only, no unit, no commentary.

Here are 3 compounds together with their reported answers.
Cc1ncc(COP(=O)(O)O)c(/C=N/OC[C@@H]2CCNC2)c1O: 0.41
Cc1ncc(COP(=O)(O)O)c(/C=N/OC[C@H]2CCNC2)c1O: 0.47
Cc1ncc(COP(=O)(O)O)c(/C=N/OCCCN)c1O: 0.45

Exam item: Reported LE, compound Cc1ncc(COP(=O)(O)O)c(/C=N/OCC2(F)CCNC2)c1O (stereo not shown) : ____
Marked response: 0.41

---

Attribute: pIC50
experimentalTarget: purified human ODC enzyme (Homo sapiens, UniProt P11926)
Construct: His6 (C); made in house; host or cells: E. coli BL21(DE3)
Sequence (P11926 whole entry): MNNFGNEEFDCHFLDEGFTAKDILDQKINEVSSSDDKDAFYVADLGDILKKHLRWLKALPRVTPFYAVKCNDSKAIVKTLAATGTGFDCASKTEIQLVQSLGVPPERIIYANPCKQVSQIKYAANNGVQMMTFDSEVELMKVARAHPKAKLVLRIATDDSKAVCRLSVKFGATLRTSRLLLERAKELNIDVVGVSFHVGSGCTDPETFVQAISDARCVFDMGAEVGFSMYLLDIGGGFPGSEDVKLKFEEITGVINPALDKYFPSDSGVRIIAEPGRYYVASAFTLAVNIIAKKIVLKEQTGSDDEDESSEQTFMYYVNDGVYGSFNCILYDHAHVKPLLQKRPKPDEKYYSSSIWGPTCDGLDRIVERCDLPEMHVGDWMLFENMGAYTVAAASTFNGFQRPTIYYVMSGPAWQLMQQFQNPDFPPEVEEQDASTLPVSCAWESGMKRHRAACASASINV
experimentNotes: In vitro ODC enzyme activity assay
Assay type: biochemical
testContext: read-out: ODC biochemical inhibition IC50
Please keep in mind that pIC50 is minus log10 of the molar concentration; only the number is needed.

NCCCON: 7.40
NOCC1CNCCO1 (stereo not drawn): 6.11
Cc1ncc(COP(=O)(O)O)c(/C=N/OC[C@H]2CCNC2)c1O: 7.52

Exam item: Reported pIC50, molecule Cl.Cl.NOCC1(F)CCNC1 (stereo not drawn) : ____
Marked response: 7.30

Exam item: Reported pIC50, molecule NOC[C@H]1CCNC1 : ____
Marked response: 7.00

Exam item: Reported pIC50, molecule NOC[C@H]1CCCNC1 : ____
Marked response: 6.15

---

experimentalTarget: purified human ODC enzyme (Homo sapiens)
Construct: His6 (C); made in house; host or cells: E. coli BL21(DE3)
experimentNotes: In vitro ODC enzyme activity assay
Type: biochemical
testContext: read-out: ODC biochemical inhibition % (50 μM)
Attribute: inhibition at 50 µM
Your answer is read as %, so omit the unit and give the number.

Here are 3 compounds together with their reported answers.
NOCC1CCNC1 (stereo not drawn) [Compound 10]: 99
Cc1ncc(COP(=O)(O)O)c(/C=N/OCC2(F)CCNC2)c1O (stereo not drawn) [11-PLP]: 92
Cc1ncc(COP(=O)(O)O)c(/C=N/OC[C@H]2CCNC2)c1O [10-S-PLP]: 93

Exam item: Reported inhibition at 50 µM, compound NOCC1CNCCO1 (stereo not drawn) [Compound 8] : ____
Marked response: 95

Exam item: Reported inhibition at 50 µM, compound NOC[C@H]1CCNC1 [Compound 10-S] : ____
Marked response: 99

Exam item: Reported inhibition at 50 µM, compound NOC[C@@H]1CCCNC1 [Compound 7-R] : ____
Marked response: 99

---

experimentalTarget: purified human ODC enzyme (Homo sapiens, UniProt P11926)
Construct: His6 (C); made in house; host or cells: E. coli BL21(DE3)
experimentNotes: In vitro ODC enzyme activity assay
Assay type: biochemical
testContext: supplement csv
measurementName: LE

Cc1ncc(COP(=O)(O)O)c(/C=N/OCCCN)c1O [APA-PLP]: 0,45

Exam item: Reported LE, molecule Cc1ncc(COP(=O)(O)O)c(/C=N/OC[C@H]2CCNC2)c1O [10-S-PLP] : ____
Marked response: 0,47

Exam item: Reported LE, molecule Cc1ncc(COP(=O)(O)O)c(/C=N/OC[C@@H]2CCNC2)c1O [10-R-PLP] : ____
Marked response: 0,41

Exam item: Reported LE, molecule Cc1ncc(COP(=O)(O)O)c(/C=N/OCC2(F)CCNC2)c1O (stereo not shown) [11-PLP] : ____
Marked response: 0,41
